Origin of values: the supplement of paper PMC10307832

Tested on: NCI-H647
Test Summary: relative viability (nuclei count vs DMSO), 5 days (fraction); higher = more cells survive
Test Settings: first compound 5 µM
Could you please report measured relative viability for the items listed next?
Could you keep your reply to the number by itself?

Reported relative viability for O=C(O)CCCCC(CCSCc1ccccc1)SCc1ccccc1 (configuration not stated) [CPI-613] + CC1(C)CCC(c2ccc(Cl)cc2)=C(CN2CCN(c3ccc(C(=O)NS(=O)(=O)c4ccc(N[C@H](CCN5CCOCC5)CSc5ccccc5)c(S(=O)(=O)C(F)(F)F)c4)cc3)CC2)C1 [Navitoclax] (partner 0.5 µM) : what is it?
1.05

Which relative viability is listed for O=C(O)CCCCC(CCSCc1ccccc1)SCc1ccccc1 (configuration not stated) [CPI-613] + CS(=O)(=O)CCNCc1ccc(-c2ccc3ncnc(Nc4ccc(OCc5cccc(F)c5)c(Cl)c4)c3c2)o1 [Lapatinib] (partner 2 µM) ?
0.962

----------
Please go through the items and note down their relative viability.
System: NCI-H2342
Test Summary: relative viability (nuclei count vs DMSO), 5 days (fraction); higher = more cells survive
Test Settings: first compound 0.5 µM
Field format: numeric only.

Entry under review: Nc1ccn([C@@H]2O[C@H](CO)[C@@H](O)[C@@H]2O)c(=O)n1 [Cytarabine] + O=C(CCCCCCC(=O)Nc1ccccc1)NO [Vorinostat] (partner 1 µM) . Reported relative viability?
0.465

# lookup: relative viability of Nc1ccn([C@@H]2O[C@H](CO)[C@@H](O)[C@@H]2O)c(=O)n1 [Cytarabine] + N=C(N)NC(=N)NCCc1ccccc1 [Phenformin] (partner 250 µM)
0.404

Reported relative viability, compound COc1cc2nccc(Oc3ccc(NC(=O)Nc4cc(C)on4)c(Cl)c3)c2cc1OC [Tivozanib] + CC(=O)c1c(C)c2cnc(Nc3ccc(N4CCNCC4)cn3)nc2n(C2CCCC2)c1=O [Palbociclib] (partner 0.5 µM) : ____
0.469

Which relative viability reading was recorded for the compound COc1cc2nccc(Oc3ccc(NC(=O)Nc4cc(C)on4)c(Cl)c3)c2cc1OC [Tivozanib] + Nc1ncn([C@H]2C[C@H](O)[C@@H](CO)O2)c(=O)n1 [Decitabine] (partner 2 µM) ?
0.712

Would you kindly share the measured relative viability for COc1cc2nccc(Oc3ccc(NC(=O)Nc4cc(C)on4)c(Cl)c3)c2cc1OC [Tivozanib] + CC(=O)Nc1cccc(-n2c(=O)n(C3CC3)c(=O)c3c(Nc4ccc(I)cc4F)n(C)c(=O)c(C)c32)c1 [Trametinib] (partner 0.02 µM) ?
0.733

----------
Test system: PC-14
Test Summary: relative viability (nuclei count vs DMSO), 5 days (fraction); higher = more cells survive
Test Settings: first compound 50 µM
Property Label: relative viability
Form: value (number only, do not type unit).

Reported relative viability, molecule O=C(O)CCCCC(CCSCc1ccccc1)SCc1ccccc1 (centres undefined) [CPI-613] + CC1(C)CCC(c2ccc(Cl)cc2)=C(CN2CCN(c3ccc(C(=O)NS(=O)(=O)c4ccc(N[C@H](CCN5CCOCC5)CSc5ccccc5)c(S(=O)(=O)C(F)(F)F)c4)cc3)CC2)C1 [Navitoclax] (partner 0.5 µM) : ____
1

Entry O=C(O)CCCCC(CCSCc1ccccc1)SCc1ccccc1 (centres undefined) [CPI-613] + Cc1nc(NC(=O)N2CCC[C@H]2C(N)=O)sc1-c1ccnc(C(C)(C)C(F)(F)F)c1 [Alpelisib] (partner 2 µM) : reported relative viability = ?
0.849

Need relative viability of O=C(O)CCCCC(CCSCc1ccccc1)SCc1ccccc1 (centres undefined) [CPI-613] + Nc1ncn([C@H]2C[C@H](O)[C@@H](CO)O2)c(=O)n1 [Decitabine] (partner 2 µM) , thanks.
0.23

Bench note: what relative viability did O=C(O)CCCCC(CCSCc1ccccc1)SCc1ccccc1 (centres undefined) [CPI-613] + CS(=O)(=O)CCNCc1ccc(-c2ccc3ncnc(Nc4ccc(OCc5cccc(F)c5)c(Cl)c4)c3c2)o1 [Lapatinib] (partner 2 µM) show?
0.303
